Below are IC50 values recorded for Pim3 kinase (Homo sapiens (Human), UniProt Q86V86).
readout: IC50 (nM)

{"compound": "N[C@H]1C[C@H](F)CN(c2ccncc2NC(=O)c2csc(-c3c(F)cccc3F)n2)C1", "system name": "Pim3 kinase (Homo sapiens (Human), UniProt Q86V86)", "unit abbreviation": "nM", "result number": 8}
{"compound": "N[C@H]1C[C@@H](O)CN(c2ccncc2NC(=O)c2csc(-c3c(F)cccc3F)n2)C1", "system name": "Pim3 kinase (Homo sapiens (Human), UniProt Q86V86)", "unit abbreviation": "nM", "result number": 13}
{"compound": "N[C@H]1C[C@@H](C(F)(F)F)CN(c2ccncc2NC(=O)c2csc(-c3c(F)cccc3F)n2)C1", "system name": "Pim3 kinase (Homo sapiens (Human), UniProt Q86V86)", "unit abbreviation": "nM", "result number": 3}
{"compound": "COc1ccc(F)c(-c2nc(C(=O)Nc3cnccc3[C@@H]3C[C@H](C)C[C@H](N)C3)cs2)c1F (stereo in doubt)", "system name": "Pim3 kinase (Homo sapiens (Human), UniProt Q86V86)", "unit abbreviation": "nM", "result number": 2}

====

Biological target: Pim3 kinase (Homo sapiens (Human), UniProt Q86V86)
readout: IC50

{"chemical smiles": "N[C@@H]1CN(c2ccncc2NC(=O)c2csc(-c3c(F)cccc3F)n2)CC(F)(F)C1", "system name": "Pim3 kinase (Homo sapiens (Human), UniProt Q86V86)", "result": "4 nM"}
{"chemical smiles": "N[C@H]1C[C@H](O)CN(c2ccncc2NC(=O)c2csc(-c3c(F)cccc3F)n2)C1", "system name": "Pim3 kinase (Homo sapiens (Human), UniProt Q86V86)", "result": "91 nM"}
{"chemical smiles": "N[C@H]1CCCN(c2ccncc2NC(=O)c2csc(-c3ccccc3F)n2)C1", "system name": "Pim3 kinase (Homo sapiens (Human), UniProt Q86V86)", "result": "4.2 nM"}
{"chemical smiles": "CC1(C)C[C@H](N)C[C@H](c2ccncc2NC(=O)c2csc(-c3c(F)cccc3F)n2)C1", "system name": "Pim3 kinase (Homo sapiens (Human), UniProt Q86V86)", "result": "3 nM"}

====

Observed log10 of IC50 values for UniProt:P11309 are listed in what follows.
Sequence (P11309 whole entry): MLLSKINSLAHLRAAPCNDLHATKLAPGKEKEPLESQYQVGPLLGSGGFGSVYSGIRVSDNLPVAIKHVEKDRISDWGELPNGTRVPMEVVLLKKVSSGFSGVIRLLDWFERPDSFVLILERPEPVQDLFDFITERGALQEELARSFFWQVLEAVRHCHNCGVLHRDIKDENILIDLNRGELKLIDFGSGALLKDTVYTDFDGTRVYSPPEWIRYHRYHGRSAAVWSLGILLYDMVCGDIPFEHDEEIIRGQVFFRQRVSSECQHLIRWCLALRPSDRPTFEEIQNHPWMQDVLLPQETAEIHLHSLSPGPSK
readout: log10 of IC50 (log10 of the value in nM)

{"compound": "C[C@@H]1C[C@H](N)C[C@H](c2ccncc2NC(=O)c2csc(-c3c(F)cc(O)cc3F)n2)C1 (stereo in doubt)", "system name": "UniProt:P11309", "log10 of IC50": 0.00}
{"compound": "NC1CN(c2ccncc2NC(=O)c2csc(-c3c(F)cccc3F)n2)CCC1Cl (centres unmarked)", "system name": "UniProt:P11309", "log10 of IC50": 0.70}
{"compound": "CO[C@@H]1C[C@H](N)CN(c2ccncc2NC(=O)c2csc(-c3c(F)cccc3F)n2)C1", "system name": "UniProt:P11309", "log10 of IC50": 1.32}
{"compound": "C[C@H]1CN(c2ccncc2NC(=O)c2csc(-c3c(F)cccc3F)n2)C[C@@H](N)[C@@H]1O", "system name": "UniProt:P11309", "log10 of IC50": 0.00}
{"compound": "N[C@H]1C[C@H](O)CN(c2ccncc2NC(=O)c2csc(-c3c(F)cccc3F)n2)C1", "system name": "UniProt:P11309", "log10 of IC50": 1.84}
{"compound": "COC1CCN(c2ccncc2NC(=O)c2csc(-c3c(F)cccc3F)n2)CC1N (centres unmarked)", "system name": "UniProt:P11309", "log10 of IC50": 0.70}
{"compound": "CC1CC(N)CN(c2ccncc2NC(=O)c2csc(C3CCCCC3)n2)C1 (centres unmarked)", "system name": "UniProt:P11309", "log10 of IC50": 1.08}
{"compound": "CC[C@@H]1C[C@H](N)CN(c2ccncc2NC(=O)c2csc(-c3c(F)cccc3F)n2)C1", "system name": "UniProt:P11309", "log10 of IC50": 0.00}
